Kindly state pIC50 for each of the entries shown.
- TARGET_SYSTEM: SARS-CoV-2 nsp13 helicase (Severe acute respiratory syndrome coronavirus 2, UniProt P0DTD1)
- ASSAY_EXPLANATION: biochemical
- Assay type: biochemical
- ASSAY_CONTEXT: IC50 No detergent
Answers are plain numbers, as −log10 of the molar value.

COc1ccc(-c2ccc3cc(C(=O)O)ccc3c2)cc1C12CC3CC(CC(C3)C1)C2 = 5.43
CN(C)CC[C@H](CSc1ccccc1)Nc1ccc(S(=O)(=O)NC(=O)c2ccc(N3CCN(Cc4ccccc4-c4ccc(Cl)cc4)CC3)cc2)cc1[N+](=O)[O-] = 5.92
COc1cc2c(cc1Cc1cccc(Cl)c1F)c(=O)c(C(=O)O)cn2[C@H](CO)C(C)C = 4.66

For the next question, use this compound.
Documented pIC50 of `Cc1ccc(F)c(NC(=O)Nc2ccc(-c3cccc4[nH]nc(N)c34)cc2)c1` : 4.59
